Every entry's value here was drawn from patent US12649733B2.

- Test system: H146 cells
- Method: H146 cell viability, MTT assay
- Format: cell-based
- Test context: Homo sapiens, NCI-H146, 48 h, 48 h exposure
Measured property: IC50 (nM)

Known results for molecules:
[
  {
    "Molecule": "Cc1cc(N(C)c2nc(C(=O)O)c(CCCOc3ccc(C#CCN(C)C(=O)OC(C)(C)C)cc3F)s2)nnc1Nc1nc2ccccc2s1 [Example 82]",
    "IC50 [nM]": 98.8
  },
  {
    "Molecule": "Cc1cc(N(CCCCN)c2nc(C(=O)O)c(CCCOc3ccc(C#CCN(C)C)cc3F)s2)nnc1Nc1nc2ccccc2s1 [Example 192]",
    "IC50 [nM]": 11.9
  },
  {
    "Molecule": "Cc1cc(N(C)c2nc(C(=O)O)c(CC3(COc4ccc(C#CCN(C)C)cc4F)CC3)s2)nnc1Nc1nc2ccccc2s1 [Example 140]",
    "IC50 [nM]": 142
  },
  {
    "Molecule": "C/C(=C\\c1sc(N(C)c2cc(C)c(Nc3nc4ccccc4s3)nn2)nc1C(=O)O)COc1ccc(C#CCN(C)C)cc1F [Example 163]",
    "IC50 [nM]": 1040
  },
  {
    "Molecule": "Cc1cc(N(CCCCCN2CCNCC2)c2nc(C(=O)O)c(CCCOc3ccc(C#CCN(C)C)cc3F)s2)nnc1Nc1nc2ccccc2s1 [Example 189]",
    "IC50 [nM]": 94.8
  }
]

a: COCCCC1(Cn2ncc(-c3sc(Nc4nnc(Nc5nc6ccccc6s5)c(C)c4C)nc3C(=O)O)c2C)CCCCC1 [Example 36]
b: CNCC#Cc1ccc(OCCCc2sc(N(CCCCC[N+](C)(C)CCO)c3cc(C)c(Nc4nc5ccccc5s4)nn3)nc2C(=O)[O-])c(F)c1 [Example 229]
**Q:** Consider a and b . Which of these has its IC50 at a higher number? Refer to your chosen entry by its label in the reply.
**A:** a
(a: 1990 nM, b: 437 nM)

P: Cc1cc(N(CCCCN2CCNCC2)c2nc(C(=O)O)c(CCCOc3ccc(C#CCN(C)C)cc3F)s2)nnc1Nc1nc2ccccc2s1 [Example 184]
Q: O=C(O)c1cccc(Nc2nnc(Nc3nc4ccccc4s3)c3c2CCC3)n1 [Example 25]
R: CNCC#Cc1ccc(OCCCc2sc(N(CCCC(O)C[N+](C)(C)C)c3cc(C)c(Nc4nc5ccccc5s4)nn3)nc2C(=O)[O-])c(F)c1 (centres unmarked) [Example 144]
**Q:** Arrange items by their IC50 values in increasing order. Ranked list of labels, please, in the requested order.
**A:** P, Q, R
(P: 107 nM, Q: 3180 nM, R: 14500 nM)

1: Cc1cc(N(C)c2nc(C(=O)O)c(CCCOc3ccccc3F)s2)nnc1Nc1nc2ccccc2s1 [Example 59]
2: Cc1c(Nc2nc(C(=O)O)cs2)nnc(Nc2nc3cc(F)c(F)cc3s2)c1C [Example 57]
**Q:** Consider 1 and 2 . Which of these has its IC50 at a higher number? Refer to your chosen entry by its label in the reply.
**A:** 2
(2: 13400 nM, 1: 271 nM)

====

- Target entity: Bcl-xL protein (Homo sapiens, UniProt Q07817, N197C)
- Construct: (2-197)[N197C]; His-His (two His8 stretches joined by a Gly/Ala/Ser/Thr linker)
- Sequence (Q07817 2-197 N197C): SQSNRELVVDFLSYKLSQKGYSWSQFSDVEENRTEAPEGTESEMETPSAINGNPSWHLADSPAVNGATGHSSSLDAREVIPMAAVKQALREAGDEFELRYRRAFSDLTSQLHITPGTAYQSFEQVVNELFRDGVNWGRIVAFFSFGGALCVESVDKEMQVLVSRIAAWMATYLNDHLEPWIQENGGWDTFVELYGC
- Method: Fluorescence quenching assay (PUMA peptide displacement)
- Test context: 1 nM protein, 400 nM peptide, 2 hours at 23° C.; KI determined from IC50
Measured property: Ki (pM)

[
  {
    "Compound": "CNCC#Cc1ccc(OCCCc2sc(N(CCCP(=O)(O)O)c3cc(C)c(Nc4nc5ccccc5s4)nn3)nc2C(=O)O)c(F)c1",
    "Ki [pM]": 1.8
  },
  {
    "Compound": "CN(C)CC#Cc1ccc(OCCCc2sc(N(C)c3cc(C4CC4)c(Nc4nc5ccccc5s4)nn3)nc2C(=O)O)c(F)c1",
    "Ki [pM]": 6
  }
]

P: Cc1cc(N(CCCC(O)C[N+]2(C)CCN(C)CC2)c2nc(C(=O)[O-])c(CCCOc3ccc(C#CCN(C)C)cc3F)s2)nnc1Nc1nc2ccccc2s1 (stereo not drawn)
Q: CNCCCc1ccc(OCCCc2sc(N(CCCCO)c3cc(C)c(Nc4nc5ccccc5s4)nn3)nc2C(=O)O)c(F)c1
**Q:** Consider P and Q . Which of these has its Ki at a higher number? Refer to your chosen entry by its label in the reply.
**A:** P
(P: 1.7 pM, Q: 1 pM)

1: Cc1cc(N(CCCCO)c2nc(C(=O)O)c(CCCOc3ccc(C#CCNCCCS(=O)(=O)O)cc3F)s2)nnc1Nc1nc2ccccc2s1
2: Cc1cc(N(CCCCO)c2nc(C(=O)O)c(CCCOc3ccc(C#CCN(CCCS(=O)(=O)O)CCCS(=O)(=O)O)cc3F)s2)nnc1Nc1nc2ccccc2s1
**Q:** Consider 1 and 2 . Which of these has its Ki at a higher number? Refer to your chosen entry by its label in the reply.
**A:** 2
(2: 9.7 pM, 1: 1.2 pM)

====

- Tested on: MOLT-4 cells
- Method: MOLT-4 cell viability, MTT assay
- Type: cell-based
- Test context: Homo sapiens, MOLT-4, 48 h, 48 h exposure
pIC50: −log10 of the molar value.
Measured property: pIC50

1: Cc1cc(N(C)c2nc(C(=O)O)c(CC(C)(C)COc3ccc(C#CCN(C)C)cc3F)s2)nnc1Nc1nc2ccccc2s1 [Example 137]
2: CCOCc1c(Nc2nc(C(=O)O)cs2)nnc(Nc2nc3ccccc3s2)c1C [Example 30]
**Q:** Consider 1 and 2 . Which of these has its pIC50 at a higher number? Refer to your chosen entry by its label in the reply.
**A:** 1
(1: 7.21, 2: 5.06)

a: Cc1cc(N(CCCCCN)c2nc(C(=O)O)c(CCCOc3ccc(C#CCN(C)C)cc3F)s2)nnc1Nc1nc2ccccc2s1 [Example 191]
b: Cc1cc(N(CCCCO)c2nc(C(=O)O)c(CCCOc3ccc(C#CCN(C)CCCS(=O)(=O)O)cc3F)s2)nnc1Nc1nc2ccccc2s1 [Example 151]
**Q:** Between a and b , which one shows the smaller pIC50 number? Refer to your chosen entry by its label in the reply.
**A:** a

====

- Test system: MOLT-4 cells
- Method: MOLT-4 cell viability, MTT assay
- Format: cell-based
- Test context: Homo sapiens, MOLT-4, 48 h, 48 h exposure
pIC50: −log10 of the molar value.
Measured property: pIC50

Known results for compounds:
[
  {
    "Compound": "Cc1cc(N(CCCCO)c2nc(C(=O)O)c(CCCOc3ccc(C#CC[N+](C)(C)CCCS(=O)(=O)[O-])cc3F)s2)nnc1Nc1nc2ccccc2s1 [Example 130]",
    "pIC50": 6.97
  },
  {
    "Compound": "CNCC#Cc1ccc(OCCCc2sc(N(CCCCC[N+](C)(C)CC(=O)O)c3cc(C)c(Nc4nc5ccccc5s4)nn3)nc2C(=O)[O-])c(F)c1 [Example 231]",
    "pIC50": 5.92
  }
]

I: Cc1cc(N(C)c2nc(C(=O)O)c(C3CN(C(=O)OC(C)(C)C)C3)s2)nnc1Nc1nc2ccccc2s1 [Example 135]
II: Cc1cc(N(C)c2nc(C(=O)O)c(-c3cnn(CC45CC6CC(CC(C6)C4)C5)c3C)s2)nnc1Nc1nc2ccccc2s1 [Example 40]
**Q:** Between I and II , which one shows the smaller pIC50 number? Refer to your chosen entry by its label in the reply.
**A:** I
(I: 5.49, II: 5.83)

====

- Target entity: BCLXL (Homo sapiens, UniProt Q07817, V10N/V9A)
- Sequence (Q07817 with tags, fused parts or gaps V9A/V10N): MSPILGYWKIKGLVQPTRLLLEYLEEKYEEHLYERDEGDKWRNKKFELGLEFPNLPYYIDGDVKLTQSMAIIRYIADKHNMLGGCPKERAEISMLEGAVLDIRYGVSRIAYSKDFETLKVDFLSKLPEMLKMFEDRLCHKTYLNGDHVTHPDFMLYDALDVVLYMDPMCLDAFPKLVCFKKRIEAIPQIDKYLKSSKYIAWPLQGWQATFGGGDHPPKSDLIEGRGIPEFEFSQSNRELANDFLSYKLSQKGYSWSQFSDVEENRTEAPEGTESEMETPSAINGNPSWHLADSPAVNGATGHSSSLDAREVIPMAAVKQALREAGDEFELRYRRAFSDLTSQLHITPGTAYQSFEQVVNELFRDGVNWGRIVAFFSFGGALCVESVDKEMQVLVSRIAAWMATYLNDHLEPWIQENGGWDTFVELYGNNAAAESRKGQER
- Method: AlphaLISA assay (BIM peptide displacement)
- Test context: 20 pM protein, 1 nM peptide
Measured property: IC50 (nM)

[
  {
    "Compound": "COC(CO)CCCN(c1cc(C)c(Nc2nc3ccccc3s2)nn1)c1nc(C(=O)O)cs1 (stereo not shown)",
    "Recorded value": 8.9
  },
  {
    "Compound": "Cc1cc(N(C)c2nc(C(=O)O)c(CCCOc3ccccc3)s2)nnc1Nc1nc2ccccc2s1",
    "Recorded value": 0.1
  },
  {
    "Compound": "Cc1cc(N(C)c2nc(C(=O)O)c(CCCOc3ccc(C#CCN(C)CCO)cc3F)s2)nnc1Nc1nc2ccccc2s1",
    "Recorded value": 0.077
  },
  {
    "Compound": "Cc1cc(N(CCCCCO)c2nc(C(=O)O)cs2)nnc1Nc1nc2ccccc2s1",
    "Recorded value": 8.6
  }
]

a: COC(CO)CCN(c1cc(C)c(Nc2nc3ccccc3s2)nn1)c1nc(C(=O)O)cs1 (stereo not shown)
b: CNCC#Cc1ccc(OCCCc2sc(N(CCCCO)c3cc(C)c(Nc4nc5ccccc5s4)nn3)nc2C(=O)O)c(F)c1
**Q:** Consider a and b . Which of these has its IC50 at a higher number? Refer to your chosen entry by its label in the reply.
**A:** a
(a: 1.8 nM, b: 0.053 nM)
